molecular target: Glucose-6-phosphate 1-dehydrogenase (Homo sapiens); assay: inhibition of Homo sapiens G6PD, dose series – biochemical, fluorescence, selectivity assay for P. falciparum G6PD inhibitor project, dose response (AID 504792); format: functional
Sequence (P11413 whole entry): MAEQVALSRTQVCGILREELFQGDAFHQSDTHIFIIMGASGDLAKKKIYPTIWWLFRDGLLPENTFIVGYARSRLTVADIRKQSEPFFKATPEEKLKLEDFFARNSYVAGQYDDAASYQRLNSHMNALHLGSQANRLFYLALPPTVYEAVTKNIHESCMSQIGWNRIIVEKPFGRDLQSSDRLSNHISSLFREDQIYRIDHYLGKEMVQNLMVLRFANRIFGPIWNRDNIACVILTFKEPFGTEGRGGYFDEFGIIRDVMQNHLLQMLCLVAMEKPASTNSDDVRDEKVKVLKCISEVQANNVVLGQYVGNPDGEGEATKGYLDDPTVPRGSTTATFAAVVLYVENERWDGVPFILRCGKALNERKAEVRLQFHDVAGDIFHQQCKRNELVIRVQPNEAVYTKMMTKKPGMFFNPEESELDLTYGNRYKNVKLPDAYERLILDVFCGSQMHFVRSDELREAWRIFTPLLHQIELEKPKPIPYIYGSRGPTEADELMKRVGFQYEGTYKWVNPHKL
Where a name gives a salt, the structure may show the parent alone. The source made the active and inactive calls. No stated cut-off is given here; in the data, active = IC50 of 20 µM or less and inactive = more.
Entries and their IC50 values follow.
METRIC_NAME: IC50

[[record]]
compound = "CCOC(=O)Nc1ccc(NCc2ccc(F)cc2)nc1N [FLUPIRTINE MALEATE]"
metric_name = "IC50"
endpoint_value = "65.4 µM (inactive)"

[[record]]
compound = "COc1cc(SSc2cc(OC)cc([N+](=O)[O-])c2N)c(N)c([N+](=O)[O-])c1"
metric_name = "IC50"
endpoint_value = "20.9 µM (inactive)"

[[record]]
compound = "CCOc1cc(CNc2ccc(N3CCCC3)cc2)cc(Cl)c1OC"
metric_name = "IC50"
endpoint_value = "> 80 µM (inactive)"

[[record]]
compound = "CCc1ccc(OCC(=O)N/N=C/c2cc([N+](=O)[O-])ccc2N2CCOCC2)cc1"
metric_name = "IC50"
endpoint_value = "> 80 µM (inactive)"

[[record]]
compound = "CCOc1ccc(NC(=O)Cn2sc3nc(C)cc(C)c3c2=O)cc1"
metric_name = "IC50"
endpoint_value = "24.1 µM (inactive)"

